Could you please report measured NanoBRET Abs IC50 for the items listed next?
Molecular target: T1, B-cat-Halo (UniProt P35222 1-781)
T1 sequence (looked up): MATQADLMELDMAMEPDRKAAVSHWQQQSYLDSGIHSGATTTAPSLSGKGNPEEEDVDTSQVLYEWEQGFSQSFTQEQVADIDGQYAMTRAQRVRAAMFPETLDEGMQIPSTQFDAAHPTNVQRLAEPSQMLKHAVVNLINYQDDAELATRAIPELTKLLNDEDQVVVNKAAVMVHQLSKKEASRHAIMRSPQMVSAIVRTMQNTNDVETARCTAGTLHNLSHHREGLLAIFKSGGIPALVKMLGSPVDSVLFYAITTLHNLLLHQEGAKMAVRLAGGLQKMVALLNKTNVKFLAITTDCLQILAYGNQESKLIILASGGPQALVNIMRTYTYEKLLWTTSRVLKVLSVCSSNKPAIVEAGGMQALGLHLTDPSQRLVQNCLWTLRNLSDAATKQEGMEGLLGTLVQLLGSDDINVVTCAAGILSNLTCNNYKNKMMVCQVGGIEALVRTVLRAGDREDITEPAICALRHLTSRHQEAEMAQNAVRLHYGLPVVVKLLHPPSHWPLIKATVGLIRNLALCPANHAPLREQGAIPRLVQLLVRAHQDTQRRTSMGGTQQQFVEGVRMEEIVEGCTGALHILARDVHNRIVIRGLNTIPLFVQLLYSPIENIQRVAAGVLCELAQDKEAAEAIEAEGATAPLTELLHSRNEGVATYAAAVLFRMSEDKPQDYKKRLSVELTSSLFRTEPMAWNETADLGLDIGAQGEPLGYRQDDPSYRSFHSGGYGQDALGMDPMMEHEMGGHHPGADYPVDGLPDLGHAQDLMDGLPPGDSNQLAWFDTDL
Experiment: cell-based or functional assay
Starred links: 1 amine or outer side, 2 acyl side, 3 side chain; linkers in the order of their positions; H or OH if unused. Positions of bridges follow the written chain, without caps; N, C: chain ends. Non-standard residues stand in square brackets, D forms with d. Primed or numbered codes have the meaning given here. PyrS2″ = (S)-3-amino-1-((pent-4-en-1-yloxy)carbonyl)pyrrolidine-3-carboxylic acid (stapling residue), C=CCCCOC(=O)N1CC[C@@](N[*:1])(C(=O)[*:2])C1; B5(18) = 2,2-bis(4-pentenyl)glycine (2-amino-2-(pent-4-en-1-yl)hept-6-enoic acid), stitching residue, C=CCCCC(CCCC=C)(N[*:1])C(=O)[*:2]; TfeGA = (S)-2-amino-3-((carboxymethyl)(2,2,2-trifluoroethyl)amino)propanoic acid, O=C([C@H](CN(CC(=O)[*:3])CC(F)(F)F)N[*:1])[*:2]; B5(3) = 2,2-bis(4-pentenyl)glycine (stitching residue), C=CCCCC(CCCC=C)(N[*:1])C(=O)[*:2]; Phe(2-Cl) = N[C@@H](Cc1ccccc1Cl)C(=O)O; Bta = N[C@@H](Cc1csc2ccccc12)C(=O)O; αAllylPro = C=CC[C@@]1(C(=O)O)CCCN1; tBuAla = CC(C)(C)C[C@H](N)C(=O)O; S8 = C=CCCCCCC[C@](C)(N)C(=O)O; hSer = N[C@@H](CCO)C(=O)O
Your answer should be a plain number; it is taken to be in µM.

Output NanoBRET Abs IC50 of Ac-[αAllylPro]D[tBuAla][B5(18)]DNAAFT[PyrS2″][Phe(2-Cl)][Bta]S-NH2 (staple 1-4, 4-11) [I-1016]
21.4

Respond only with NanoBRET Abs IC50 recorded for Ac-[αAllylPro]D[tBuAla][B5(18)]D[TfeGA]IAFN[PyrS2″][Phe(2-Cl)][Bta]Q-NH2 (staple 1-4, 4-11) [I-1010]
13.3

Tell me its NanoBRET Abs IC50 given Ac-[αAllylPro]D[tBuAla][B5(18)]DDAAFS[PyrS2″][Phe(2-Cl)][Bta]Q-NH2 (staple 1-4, 4-11) [I-1017] as the entry.
8.9

Check the records and state NanoBRET Abs IC50 for Ac-[αAllylPro]D[tBuAla][B5(18)]DNAAFS[PyrS2″][Phe(2-Cl)][Bta]Q-NH2 (staple 1-4, 4-11) [I-1018]
25.8

// Input: Ac-[αAllylPro]D[tBuAla][B5(3)]D[TfeGA]AAFS[S8][Phe(2-Cl)][Bta][hSer]-NH2 (staple 1-4, 4-11; also: later-eluting HPLC isomer) [I-999] . Output its NanoBRET Abs IC50 only.
26.3

Give me measured NanoBRET Abs IC50, please, for this binder: Ac-[αAllylPro]D[tBuAla][B5(18)]DDAAFT[PyrS2″][Phe(2-Cl)][Bta]Q-NH2 (staple 1-4, 4-11) [I-1013]
12.4

Respond only with NanoBRET Abs IC50 recorded for Ac-[αAllylPro]D[tBuAla][B5(18)]D[TfeGA]ALFN[PyrS2″][Phe(2-Cl)][Bta]Q-NH2 (staple 1-4, 4-11) [I-1002]
29.8
